# Test system: UO-31 renal
# assayName: NCI-60 one-dose screen, 48 h (100 = growth as untreated, 0 = no growth, -100 = all killed)
# appliedConditions: 10 µM unless noted
This is part of a sample that, as a whole, favours compounds with a hit. Of some 83,000 tested, about 20% had one in any assay. The source made the active and inactive calls. Rule for the calls: active = growth percent below 10; inactive = the rest.
quantityMeasured: growth

compound | resultValue
CC1=Cc2ccccc2OC12C=Cc1ccccc1O2 (stereo not drawn) | 69% (inactive)
O=C(CSc1cc[n+](CCCCO)c2ccccc12)n1ccc2ccccc21 | 63.6% (inactive)
O=C1Nc2ccc(F)cc2/C1=C\C(=O)c1ccc(NS(=O)(=O)c2ccccc2)cc1 | 70% (inactive)
C=C(C)[C@@H]1CC[C@]2(C(=O)O)CC[C@]3(C)[C@H](CC[C@@H]4[C@@]5(C)C/C(=C/c6ccccn6)C(=O)C(C)(C)[C@@H]5CC[C@]43C)[C@@H]12 | 35.8% (inactive)
Cc1nc(N)sc1-c1csc(Nc2ccc(C(F)(F)F)cc2)n1 | 21.1% (inactive)
O=C(CSc1nc2ccccc2c(=O)n1CCc1ccccc1)Nc1ccc(S(=O)(=O)Nc2ccc(Cl)nn2)cc1 | 65.1% (inactive)
COc1ccc2[nH]cc(-c3nc(N)nnc3-c3cn(C)c4ccc(Br)cc34)c2c1 | 40.7% (inactive)
O=C(CCCCCCNC(=O)C(O)(O)C(F)(F)F)Nc1nc2ccccc2s1 | -9.93% (active)
O=C(Nc1ccc(N=Cc2c(O)[nH]c3ccccc23)cc1)Nc1ccc(S(=O)(=O)Nc2ncccn2)cc1 | 81.7% (inactive)
CN(C)S(=O)(=O)c1ccc(-c2nc(C(Cl)Cl)nc3cc(-c4ccccc4)nn23)cc1 | 88.8% (inactive)
CC(C)(C)c1cc(NC(=O)Nc2ccc(-c3cn4c5c(sc4n3)CCc3c[nH]cc3-5)cc2)no1 | 7.92% (active)
CSc1ccc(/C(=N/N=C(N)N)c2ccc(Cl)cc2)cc1 | 10.1% (inactive)
CCCc1[nH]c(-c2cc(N)ccc2Cl)c2c1C(=O)CCCC2 | 78.3% (inactive)
Cc1[nH]c(C(=O)Nc2ccccc2OCc2cccc(C(=O)NC3CCNC3)c2)c(Cl)c1Cl (stereo not drawn) | 84.9% (inactive)
O=C(/C=C/C=C/c1csc(Br)n1)NO | 71.9% (inactive)
Fc1ccc2nc(-c3cnn4cccnc34)sc2c1 | 46.8% (inactive)
CN(C)CCCOc1ccc(C(=C(c2ccccc2)C2CCCC2)c2ccc(OCCCN(C)C)cc2)cc1 | -96.8% (active)
O=C(Nc1cccc(C(F)(F)F)c1)N1CCN(c2cc(-c3cn(-c4ccccc4)nc3-c3cccc(O)c3)ccn2)CC1 | 25.3% (inactive)
COc1cc(-c2nc(-c3ccccc3)[nH]c2-c2ccnc(NCCCNS(=O)(=O)c3cccc(F)c3)n2)ccc1F | 89.2% (inactive)
O=C1Nc2ccccc2/C1=C/c1ccc(OCC(=O)c2ccccc2)cc1 | 69.5% (inactive)
C#CCOc1cccc(/C(N)=N/C(N)=N/c2nc3ccccc3s2)c1 | 91.8% (inactive)
O=S(=O)(NCCCNc1nccc(-c2[nH]c(-c3ccccc3)nc2-c2ccc(F)c(O)c2)n1)c1ccccc1 | 144% (inactive)
Cc1csc(/N=C(N)/N=C(\N)c2cccc(Br)c2)n1 | 86.4% (inactive)
CC1(C)CC[C@]23CC[C@]4(C)[C@H](CC[C@@H]5[C@@]6(C)CC[C@H](NCO)C(C)(C)[C@@H]6CC[C@]54C)[C@H]2[C@H]1OC3 | 73.9% (inactive)
CCOC(=O)c1cnc2c(-c3ccc(Cl)c(Cl)c3)cnn2c1 | 80.2% (inactive)
CC(C)(C)Nc1nc2c(OCCc3ccccc3)cccn2c1-c1ccc([N+](=O)[O-])cc1 | 31.6% (inactive)
c1ccc(-c2cn3c(-c4c[nH]c5ccccc45)csc3n2)cc1 | 73% (inactive)
Cc1cccc(N2CCN(C3=C(Cl)C(=O)c4ncccc4C3=O)CC2)c1 | 18.3% (inactive)
CCC(=C(c1ccc(OCCN(C)C)cc1)c1ccc(OCCN(C)C)cc1)c1ccc(Cl)cc1 | -71.9% (active)
O=C(CSc1nc2ccccc2c(=O)n1-c1ccc(Cl)c(Cl)c1)Nc1ccc(S(=O)(=O)Nc2ccc(Cl)nn2)cc1 | 79.8% (inactive)
COc1ccc(/C=N/NC(=O)c2c(N)nn(C)c2Nc2ccccc2)cc1 | 51.2% (inactive)
O=C(/C=C/c1csc(Br)n1)NO | 15.5% (inactive)
CCCCc1nc2c(N)nc3ccccc3c2n1Cc1ccc(OC)cc1 | 40.2% (inactive)

###

# System: HOP-92 NSCLC
# assayName: NCI-60 one-dose screen, 48 h
# appliedConditions: 10 µM unless noted
This is part of a sample that, as a whole, favours compounds with a hit. Of some 83,000 tested, about 20% had one in any assay. Activity calls are given as the source filed them. Rule for the calls: active = growth percent below 10; inactive = the rest.
Outcome codes: active, inactive

compound | labelClass
CCOC(=O)c1c(NC(=O)c2ccc(C(F)(F)F)cc2)sc2c3c(ccc12)OCN(C)C3 | inactive
COc1ccc2sc(NC(=O)CCCCCCNC(=O)C(O)(O)C(F)(F)F)nc2c1 | active
CC(=O)C1=C(C)NC(NNc2ccccc2)=NC1c1ccc([N+](=O)[O-])cc1 (stereo not drawn) | inactive
COc1cc2c3c(cc4c5c(ccc4c3c1OC)OCO5)N(CCN(C)C)C2=O | active
C#C[C@]1(O)CC[C@H]2[C@@H]3CC=C4c5sc(Nc6cc(C)cc(C)c6)nc5CC[C@]4(C)[C@H]3CC[C@@]21C | inactive
Cn1ncc2ncc(-c3ccc4ncc(C#N)c(N5CCc6cc(F)c(Cl)cc65)c4c3)cc21 | active
CNC(=O)c1cc(-n2ccc3cc(NC(=O)Nc4ccc(N5CCN(C)CC5)c(C(F)(F)F)c4)ccc32)ccn1 | inactive
COc1cc(NC(=O)Nc2cccc(-c3cc(=O)c4c(OC)c(OC)c(OC)cc4o3)c2)cc(OC)c1OC | active
OCC(Nc1ncnc2ccc(-c3cnc4cnccn34)cc12)c1ccccc1 (stereo not drawn) | inactive
CC(O)c1cccc(/C(N)=N/C(N)=N/c2nc3ccccc3s2)c1 (stereo not drawn) | inactive
CCCCN1C(=O)/C(=c2\sc3n(c2=O)C2C(NN=3)N(CC)C(=O)N2CC)c2cc(C)ccc21 (stereo not drawn) | inactive
C#C[C@]1(O)CC[C@H]2[C@@H]3CC=C4c5sc(NCc6ccccc6)nc5CC[C@]4(C)[C@H]3CC[C@@]21C | inactive
COc1ccc2[nH]cc(-c3nc(N)nnc3-c3cn(C)c4ccc(Br)cc34)c2c1 | inactive
C#CCOc1cccc(-c2nc(N)nc(Nc3ccccc3SSc3ccccc3Nc3nc(N)nc(-c4cccc(OCC#C)c4)n3)n2)c1 | inactive
COc1ccc2c(c1)c(-c1nc(N)nnc1-c1c[nH]c3ccccc13)cn2C | inactive
CC(=O)c1cc(C(=O)N2c3ccccc3Sc3ccccc32)n2c1ccc1ccccc12 | inactive
Cc1[nH]c(C(=O)Nc2ccc(S(=O)(=O)N3CCCCC3)cc2OCCOCCOCCOCCOCCOCCOCCOCCOCCOc2cc(S(=O)(=O)N3CCCCC3)ccc2NC(=O)c2[nH]c(C)c3c2CCCCC3=O)c2c1C(=O)CCCC2 | inactive
COC(=O)c1cccc(NC2=C(Cl)C(=O)C(C)=C(C)C2=O)c1 | inactive
CN1CCN(Cc2ccc(NC(=O)c3cncc(C#Cc4cnc5ccc(O[C@@H]6CCOC6)nn45)c3)cc2C(F)(F)F)CC1 | active
O=C(/C=C/Nc1ccc(S(=O)(=O)Nc2ncccn2)cc1)c1ccc(N=Cc2c(O)[nH]c3ccccc23)cc1 | inactive
CC(=O)c1c([Si](C)(C)C)c2cc(C#N)ccn2c1C(=O)c1ccc(Br)cc1 | inactive
C#C[C@]1(O)CC[C@H]2[C@@H]3CC=C4c5sc(Nc6cc(Cl)ccc6OC)nc5CC[C@]4(C)[C@H]3CC[C@@]21C | active
O=C1[C@H]2Cc3c([nH]c4ccccc34)[C@H](c3ccc(Br)cc3)N2C(=O)CN1C1CCN(CC2CCCCC2)CC1 | inactive
O=C1c2ccccc2C23C(=C(c4cncnc4)c4ccccc42)CCCN13 (stereo not drawn) | inactive
NC1[C@H]2CN(c3cnc(C(=O)Nc4cc(F)cc5cccnc45)cn3)C[C@@H]12 (stereo partly drawn) | inactive
COc1ccc(-c2c3c(cn2Cc2cccc(OC)c2)-c2oncc2CCC3)cc1 | inactive
Cc1ccc(C(=O)Nc2ccc(CNCCN3CCNCC3)c(C(F)(F)F)c2)cc1C#Cc1cnc2cccnn12 | active
C#C[C@]1(O)CC[C@H]2[C@@H]3CC=C4c5sc(Nc6ncccc6C)nc5CC[C@]4(C)[C@H]3CC[C@@]21C | inactive

###

// reported growth for each item listed
# Tested on: DU-145 prostate
# assayName: NCI-60 one-dose screen, 48 h (100 = growth as untreated, 0 = no growth, -100 = all killed)
# appliedConditions: 10 µM unless noted
# Method: Cells are grown in 96 well plates and exposed to the test compound for 48 hours. Compounds are tested at a single concentration, which is 10^-5 M for most compounds. The reported endpoint is percent growth (GI% or GIPRCNT), where numbers from 0 - 100% represent growth inhibition, and numbers from -100% - 0 represent cell death. For example, a value of 40 represents 60% growth inhibition. A value of 0 means no net growth occurred over the course of the experiment. […]
This is part of a sample that, as a whole, favours compounds with a hit. Of some 83,000 tested, about 20% had one in any assay.

smilesNotation | targetEntity | unitSpec | growth
O=C(/C=C/c1cccc(C(F)(F)F)c1)Nc1cccc(C(F)(F)F)c1 | DU-145 prostate | % | 30.1
CC(=O)N(O)CCCCCNC(=O)CCC(=O)N(O)CCCCCNC(=O)CCC(=O)N(O)CCCCCN(CCCCCCCCCC[P+](c1ccccc1)(c1ccccc1)c1ccccc1)CCCCCCCCCC[P+](c1ccccc1)(c1ccccc1)c1ccccc1 | DU-145 prostate | % | 14.9
CNC(=O)c1cc(-c2ccc(NC(=S)Nc3cccc(C(F)(F)F)c3)cc2)nc2cccnc12 | DU-145 prostate | % | 103
